Values from PubChem BioAssay (NCI)

test system: ACHN renal; experiment: NCI-60 one-dose screen, 48 h (100 = growth as untreated, 0 = no growth, -100 = all killed); conditions: 10 µM unless noted
This is part of a sample that, as a whole, favours compounds with a hit. Of some 83,000 tested, about 20% had one in any assay. Activity calls are given as the source filed them. The calls were made as follows: active = growth percent below 10; inactive = the rest.
Field: growth. Provide a value for each of the compounds that follow.

Would you please look over these solved cases?
Cc1ccc(C2=NNC(c3sc(Cl)nc3Cl)C2)cc1 (configuration not stated) ... 112% (inactive)
Cc1cnc2nc(-c3ccc(N(C)C)cc3)cn2c1 ... 112% (inactive)
COc1ccc2c(c1)[n+](=O)c(/C=C/C(=O)c1cc(OC)c(OC)c(OC)c1)c(C)n2[O-] ... 47.7% (inactive)
CC12CCC3C(=CCc4cc(O)ccc43)C1CCC2=O (configuration not stated) ... 93.1% (inactive)
Cc1ccc(NC(=O)c2sc3nc4c(cc3c2N)C(=O)CCC4)cc1 ... 89.9% (inactive)
O=C1CNc2cc(Cl)ccc2N1 ... 98.6% (inactive)
O=C1/C(=C/c2ccccc2O)C(=S)SN1Cc1ccco1 ... 106% (inactive)
CCN(CC)c1ccc(/C=C/C(=O)c2cccc(NS(C)(=O)=O)c2)cc1 ... 37.7% (inactive)
CCN(CC)c1ccc(N=C2C=CC(=O)C=C2NC(C)=O)cc1 ... 83.7% (inactive)
Cc1cc(=O)[nH]c(/C(=N/Nc2ccccc2)C(=O)c2ccc(Cl)cc2)n1 ... 111% (inactive)

# batch size: 7; output growth per entry
1. COc1ccc(NS(=O)(=O)N2CCCCC2)cc1
2. CC(=O)Nc1cc2c3c(cccc3c1)-c1ccccc1-2
3. COC(=O)Nc1ccc2ccc3c(NC(=O)OC)ccc4ccc1c2c43 (tested in a mixture with another compound)
4. COc1cc(/C=C/c2cc(/C=C/c3ccc(O)c(OC)c3)n(C(=O)Cc3ccccc3)n2)ccc1O
5. CCCCCCC(CC#N)(CCC)CCCC (configuration not stated)
6. O=c1ncc(-c2ccc(C(F)(F)F)cc2)c(NC2CCCCCC2)[nH]1
7. COc1cnc2c(c1)C(=O)c1c-2n(CCCN2CCOCC2)c(=O)c2cc(F)ccc12

Ans:
["104% (inactive)", "91.5% (inactive)", "59% (inactive)", "5.4% (active)", "99% (inactive)", "24.4% (inactive)", "-66.9% (active)"]

* * *

system: OVCAR-5 ovarian; assay: NCI-60 one-dose screen, 48 h; conditions: 10 µM unless noted
Compounds without any hit were thinned out: in the full panel of roughly 83,000, 20% have a hit. Calls of active or inactive are those of the source. How the source made its calls: active means growth percent below 10; inactive means the rest.
Please answer using one outcome listed in TRUE for active, FALSE for inactive

N=C1c2nc3n(c2C(=O)c2nc4n(c21)CCCCC4)CCCCC3 ... FALSE
CC(=O)Nc1ccc(C(=O)COc2ccc(/C=C3\CCc4ccccc4C3=O)cc2)cc1 ... FALSE
Nc1nc2c(nnn2Cc2ccc(Cl)c(Cl)c2)c(=O)[nH]1 ... FALSE
NC(=N\N=C/Cc1ccccc1)/C(N)=N\N=C\Cc1ccccc1 ... FALSE
CCOC(=O)C1=CCC(n2cc(C)c(=O)[nH]c2=O)O1 (stereo not drawn) ... FALSE
COc1cnc2c(c1)C(=O)c1c-2n(CCCNC2=NCCS2)c(=O)c2cc(F)ccc12 ... FALSE
COc1ccc2c(c1)[n+](=O)c(C(=O)/C=C/c1cc(OC)c(OC)c(OC)c1)c(C)n2[O-] ... FALSE
CC(C)N(Cc1ccccc1)c1c(S)ssc1=S ... FALSE
O=c1c2c(=NCCCN3CCCC3)cc3c(=O)n(CCCN4CCCC4)c(=O)c4c(NCCCN5CCCC5)cc(c(O)n1CCCN1CCCC1)c2c4-3 ... TRUE
FC(F)(F)c1cc(-c2nnc3n2N=C(N2CCCC2)CS3)cc(C(F)(F)F)c1 ... FALSE

Q: Short answer needed: outcome of this test for C[N+]1(C)C2CC[C@@H]1CC(OC(=O)C(O)c1ccccc1)C2 (stereo partly drawn) ?
Ans: FALSE

Q: Short answer needed: outcome of this test for NS(=O)(=O)c1ccc(-n2ncc3c(SCc4ccccc4)ncnc32)cc1 ?
Ans: FALSE
